TARGET_OR_SYSTEM: T1, human GPA33 expressed on HEK293STF cells (EGFP-human GPA33 expression vector, ORIGENE RG210225) (human, UniProt Q99795 22-319)
T1 sequence (looked up): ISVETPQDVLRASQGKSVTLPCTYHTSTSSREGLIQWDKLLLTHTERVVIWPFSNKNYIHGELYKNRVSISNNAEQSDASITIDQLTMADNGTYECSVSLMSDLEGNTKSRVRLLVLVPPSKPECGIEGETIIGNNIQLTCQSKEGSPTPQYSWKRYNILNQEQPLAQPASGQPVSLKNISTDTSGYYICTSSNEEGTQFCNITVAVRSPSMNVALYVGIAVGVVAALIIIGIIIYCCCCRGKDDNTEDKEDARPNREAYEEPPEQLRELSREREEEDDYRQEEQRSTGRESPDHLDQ
TEST: cell-based or functional assay
EXPERIMENTAL_READOUT: EC50(GPA33) (nM), Wnt/β-catenin reporter in 293STF cells expressing GPA33

BINDER: G17-R1CRD-His (other) QMQLVQSGGGLVKPGGSLRLSCAASGFTFSSYNMNWVRQAPGKGLEWVSSISSSGDFMYYADSVKGRFTISRDNAKNSLYLQMSSLRAEDTAVYYCAREGPGTPFDYWGQGTLVTVSSGGGGSGGGGSGSTGSAIQLTQSPSSLSASVGDRVTITCRASQSISSFLNWYQHKPGKAPKLLIYVASSLQSGVPSRFSGSGSGTDFTLTISSLQPEDFATYYCQQSHNTPYTFGQGTKLEIKGGSGGSISAEGSQACAKGCELCSEVNGCLKCSPKLFILLERNDIRQVGVCLPSCPPGYFDARNPDMNKCIKCKIEHCEACFSHNFCTKCKEGLYLHKGRCYPACPEGSSAANGTMECSSPAHHHHHHGA
UNITS_TEXT: nM
RESULT: 0.031
//
BINDER: G17-R2CRD-His (other) QMQLVQSGGGLVKPGGSLRLSCAASGFTFSSYNMNWVRQAPGKGLEWVSSISSSGDFMYYADSVKGRFTISRDNAKNSLYLQMSSLRAEDTAVYYCAREGPGTPFDYWGQGTLVTVSSGGGGSGGGGSGSTGSAIQLTQSPSSLSASVGDRVTITCRASQSISSFLNWYQHKPGKAPKLLIYVASSLQSGVPSRFSGSGSGTDFTLTISSLQPEDFATYYCQQSHNTPYTFGQGTKLEIKGGGGSGGGGSGGGGSNPICKGCLSCSKDNGCSRCQQKLFFFLRREGMRQYGECLHSCPSGYYGHRAPDMNRCARCRIENCDSCFSKDFCTKCKVGFYLHRGRCFDECPDGFAPLEETMECVEGHHHHHHGA
UNITS_TEXT: nM
RESULT: 0.021
//
BINDER: R1CRD-G17-His (other) ISAEGSQACAKGCELCSEVNGCLKCSPKLFILLERNDIRQVGVCLPSCPPGYFDARNPDMNKCIKCKIEHCEACFSHNFCTKCKEGLYLHKGRCYPACPEGSSAANGTMECSSGGGGSGGGGSGGGGSQMQLVQSGGGLVKPGGSLRLSCAASGFTFSSYNMNWVRQAPGKGLEWVSSISSSGDFMYYADSVKGRFTISRDNAKNSLYLQMSSLRAEDTAVYYCAREGPGTPFDYWGQGTLVTVSSGGGGSGGGGSGSTGSAIQLTQSPSSLSASVGDRVTITCRASQSISSFLNWYQHKPGKAPKLLIYVASSLQSGVPSRFSGSGSGTDFTLTISSLQPEDFATYYCQQSHNTPYTFGQGTKLEIKHHHHHHGA
UNITS_TEXT: nM
RESULT: 0.027
//
BINDER: G17-R4CRD-His (other) QMQLVQSGGGLVKPGGSLRLSCAASGFTFSSYNMNWVRQAPGKGLEWVSSISSSGDFMYYADSVKGRFTISRDNAKNSLYLQMSSLRAEDTAVYYCAREGPGTPFDYWGQGTLVTVSSGGGGSGGGGSGSTGSAIQLTQSPSSLSASVGDRVTITCRASQSISSFLNWYQHKPGKAPKLLIYVASSLQSGVPSRFSGSGSGTDFTLTISSLQPEDFATYYCQQSHNTPYTFGQGTKLEIKGGSGGSGGNCTGCIICSEENGCSTCQQRLFLFIRREGIRQYGKCLHDCPPGYFGIRGQEVNRCKKCGATCESCFSQDFCIRCKRQFYLYKGKCLPTCPPGTLAHQNTRECQGHHHHHHGA
UNITS_TEXT: nM
RESULT: 0.008
